experiment: Compound cytotoxicity (CC50) counter screen in Vero E6 cells; type: cell-based; settings: African green monkey, read-out: CC50 (general cytotoxic effects in Vero E6 cells)
measurementLabel: CC50 at 72 h (nM)
A number alone suffices; assume nM.

These solved cases illustrate the format of a correct answer.
1. O=c1cc(-c2ccnc3[nH]c(C4CC4)cc23)cc(N2CCCCC2C(F)(F)F)[nH]1 (stereo not shown) [Compound 3] | 2830
2. O=c1cc(-c2ccnc3[nH]ncc23)cc(N2CCCCC2C(F)(F)F)[nH]1 (stereo not shown) [Compound 1] | 15000

Sample Cc1ccc(-c2cc3c(-c4cc(N5CCOCC5C(F)(F)F)[nH]c(=O)c4)ccnc3[nH]2)s1 (stereo not shown) [Compound 4] — what was its CC50 at 72 h?
1430

The reported measurements were obtained from patent US20220184054A1.
